Data provenance is patent US20250376519A1.

Target of assay: T1, human DLL3 (ACRO, DLL3-H52H4) (human, UniProt Q9NYJ7 27-492)
T1 construct: Bought
T1 sequence: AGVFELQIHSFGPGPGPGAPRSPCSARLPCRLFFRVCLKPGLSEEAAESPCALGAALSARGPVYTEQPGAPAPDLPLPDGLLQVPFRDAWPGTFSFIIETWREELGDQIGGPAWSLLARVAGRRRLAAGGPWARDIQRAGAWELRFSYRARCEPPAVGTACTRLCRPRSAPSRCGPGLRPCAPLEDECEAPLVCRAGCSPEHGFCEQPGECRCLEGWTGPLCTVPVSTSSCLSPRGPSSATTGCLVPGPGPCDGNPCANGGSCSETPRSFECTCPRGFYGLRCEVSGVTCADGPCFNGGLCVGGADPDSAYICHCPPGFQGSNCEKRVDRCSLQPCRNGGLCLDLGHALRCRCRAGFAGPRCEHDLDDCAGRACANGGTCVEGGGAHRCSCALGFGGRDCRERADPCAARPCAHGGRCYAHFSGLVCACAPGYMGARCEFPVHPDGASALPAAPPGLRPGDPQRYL
Experimental details: SPR Biacore 8K, Ab captured on Protein A
Property measured: Kd (nM)
Value expressed in nM; do not type the unit.

# example entries with known answers
- Binder: "hu30L1H4 (antibody, human IgG1, kappa, V domains shown) VH: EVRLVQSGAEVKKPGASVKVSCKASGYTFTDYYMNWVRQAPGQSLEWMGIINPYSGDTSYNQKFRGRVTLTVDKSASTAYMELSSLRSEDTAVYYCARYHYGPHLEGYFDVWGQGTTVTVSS VL: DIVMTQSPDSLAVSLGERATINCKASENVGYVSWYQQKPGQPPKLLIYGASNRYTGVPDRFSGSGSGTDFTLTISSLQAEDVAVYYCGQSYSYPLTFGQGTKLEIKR"
  Endpoint unit: "nM"
  Kd: 1.28
- Binder: "hu30L3H6 (antibody, human IgG1, kappa, V domains shown) VH: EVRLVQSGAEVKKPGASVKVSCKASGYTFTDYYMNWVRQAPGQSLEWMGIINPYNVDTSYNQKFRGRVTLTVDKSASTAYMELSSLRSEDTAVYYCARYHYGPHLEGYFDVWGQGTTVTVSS VL: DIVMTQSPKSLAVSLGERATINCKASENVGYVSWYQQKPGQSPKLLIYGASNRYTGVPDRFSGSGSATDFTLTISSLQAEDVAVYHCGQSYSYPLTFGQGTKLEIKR"
  Endpoint unit: "nM"
  Kd: 0.939

Now for the binder whose Kd we want.
Reported Kd for hu6L2H3 (antibody, human IgG1, kappa, V domains shown) VH: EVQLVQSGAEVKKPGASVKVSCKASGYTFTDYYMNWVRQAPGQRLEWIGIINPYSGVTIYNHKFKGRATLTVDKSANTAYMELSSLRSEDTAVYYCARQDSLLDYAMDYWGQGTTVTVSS VL: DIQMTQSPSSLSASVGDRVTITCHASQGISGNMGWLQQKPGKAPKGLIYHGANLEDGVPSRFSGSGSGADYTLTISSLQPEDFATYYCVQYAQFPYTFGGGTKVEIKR was 2.01
